B1: library; a variant is named by its letters at N, in order (parent)
chain: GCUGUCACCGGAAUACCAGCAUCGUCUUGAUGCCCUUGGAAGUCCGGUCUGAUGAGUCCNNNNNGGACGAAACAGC

Variants of: B1
Assay: normalized RNA/DNA level with ligand (relative to sTRSVctl = 100) (log10 (% of sTRSVctl)); higher = less ribozyme self-cleavage, higher mRNA level
Settings: ligand concentration (+) RNA-Seq: 5 mM, HEK293T, reporter: mCherry (pCS4076), ligand present: yes
variants and their reported normalized RNA/DNA level with ligand (log10)
reportedProperty: normalized RNA/DNA level with ligand (log10)

{"mutantCode": "UAGAG", "valueObserved": 1.94}
{"mutantCode": "CCAAU", "valueObserved": 1.95}
{"mutantCode": "ACGCC", "valueObserved": 1.95}
{"mutantCode": "GACCU", "valueObserved": 1.99}
{"mutantCode": "UGCGA", "valueObserved": 1.9}
{"mutantCode": "CAGGA", "valueObserved": 2.01}
{"mutantCode": "CGCGU", "valueObserved": 1.91}
{"mutantCode": "UGAAU", "valueObserved": 1.94}
{"mutantCode": "ACAAA", "valueObserved": 2}
{"mutantCode": "AGGGA", "valueObserved": 2.04}
{"mutantCode": "AAAAU", "valueObserved": 2.02}
{"mutantCode": "ACAAU", "valueObserved": 1.99}
{"mutantCode": "AAUCG", "valueObserved": 2.06}
{"mutantCode": "AGUAC", "valueObserved": 2}
{"mutantCode": "AAACU", "valueObserved": 1.97}
{"mutantCode": "AUGAU", "valueObserved": 2.01}
{"mutantCode": "GAUCU", "valueObserved": 1.98}
{"mutantCode": "AUUGA", "valueObserved": 1.99}
{"mutantCode": "AUCGC", "valueObserved": 1.98}
{"mutantCode": "CUACA", "valueObserved": 2.03}
{"mutantCode": "UAGUA", "valueObserved": 1.87}
{"mutantCode": "UGCUU", "valueObserved": 1.99}
{"mutantCode": "UCUGU", "valueObserved": 2.1}
{"mutantCode": "CUCCA", "valueObserved": 2.03}
{"mutantCode": "CACUA", "valueObserved": 1.99}
{"mutantCode": "AUCCG", "valueObserved": 1.92}
{"mutantCode": "UGUGA", "valueObserved": 2.05}
{"mutantCode": "AAAGG", "valueObserved": 1.98}
{"mutantCode": "AUGUG", "valueObserved": 1.96}
{"mutantCode": "CUAAU", "valueObserved": 2.02}
{"mutantCode": "AGACG", "valueObserved": 2.01}
{"mutantCode": "ACGCA", "valueObserved": 1.99}
{"mutantCode": "UUAAG", "valueObserved": 2.02}
{"mutantCode": "CCUGC", "valueObserved": 2.02}
{"mutantCode": "CAGCC", "valueObserved": 2}
{"mutantCode": "CUGCC", "valueObserved": 2.09}
{"mutantCode": "CUGUC", "valueObserved": 2.02}
{"mutantCode": "UUUAA", "valueObserved": 2.05}
{"mutantCode": "CCGCC", "valueObserved": 2.02}
{"mutantCode": "CGACA", "valueObserved": 2.01}
{"mutantCode": "AACAA", "valueObserved": 1.99}
{"mutantCode": "UACGU", "valueObserved": 2.02}
{"mutantCode": "AUUCA", "valueObserved": 2.04}
{"mutantCode": "GAUAU", "valueObserved": 1.95}
{"mutantCode": "UAUGC", "valueObserved": 2.02}

Source: the supplement of paper PMC6757056
